Values from patent US20150087627A1

Each record here notes measured pIC50.
study_target: PI3K γ (p110γ) (Homo sapiens, UniProt P48736)
Construct: purchased Upstate / Millipore Corporation
Sequence (P48736 whole entry): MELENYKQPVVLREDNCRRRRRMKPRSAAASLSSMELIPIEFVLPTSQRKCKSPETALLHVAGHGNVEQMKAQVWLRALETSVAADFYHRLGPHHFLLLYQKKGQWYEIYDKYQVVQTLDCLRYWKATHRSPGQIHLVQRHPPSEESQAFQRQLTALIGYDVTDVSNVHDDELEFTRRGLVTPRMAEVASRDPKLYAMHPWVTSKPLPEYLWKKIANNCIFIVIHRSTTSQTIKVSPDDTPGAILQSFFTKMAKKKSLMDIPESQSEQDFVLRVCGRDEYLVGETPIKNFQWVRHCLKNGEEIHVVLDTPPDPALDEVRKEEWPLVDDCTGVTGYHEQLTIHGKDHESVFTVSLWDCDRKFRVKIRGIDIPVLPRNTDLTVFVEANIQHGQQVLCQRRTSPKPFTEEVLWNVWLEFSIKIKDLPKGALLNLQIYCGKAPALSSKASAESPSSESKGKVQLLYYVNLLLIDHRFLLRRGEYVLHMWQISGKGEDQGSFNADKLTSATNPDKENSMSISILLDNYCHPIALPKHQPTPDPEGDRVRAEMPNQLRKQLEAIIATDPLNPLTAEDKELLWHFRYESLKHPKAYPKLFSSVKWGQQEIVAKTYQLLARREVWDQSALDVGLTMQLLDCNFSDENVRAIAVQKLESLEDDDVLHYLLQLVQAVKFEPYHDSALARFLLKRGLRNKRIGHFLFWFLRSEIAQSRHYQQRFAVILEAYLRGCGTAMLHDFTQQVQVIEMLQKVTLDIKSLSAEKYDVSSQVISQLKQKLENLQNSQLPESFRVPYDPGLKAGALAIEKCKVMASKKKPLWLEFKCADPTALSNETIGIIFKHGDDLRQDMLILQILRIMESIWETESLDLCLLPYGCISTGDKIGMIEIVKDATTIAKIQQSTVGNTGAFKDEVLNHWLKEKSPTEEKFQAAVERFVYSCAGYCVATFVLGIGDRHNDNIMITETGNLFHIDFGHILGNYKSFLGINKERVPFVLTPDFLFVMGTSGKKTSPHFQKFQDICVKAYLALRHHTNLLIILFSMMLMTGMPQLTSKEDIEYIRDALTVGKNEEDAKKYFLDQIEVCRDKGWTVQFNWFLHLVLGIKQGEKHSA
assay_comment: PI 3-Kinase (human) HTRF assay, PI3K γ
Assay type: biochemical
measurement_conditions: read-out: PI3K γ IC50
pIC50: −log10 of the molar value.

Example compounds with recorded pIC50:
Cc1cc(-c2ccc3nc(N)oc3c2)cn2c(CCN3CCN(C)CC3)nnc12; < 5.00
CS(=O)(=O)N1CCN(C(=O)c2cnc3ccc(-c4ccc5oc(N)nc5c4)cn23)CC1; > 6.00
Nc1nc2cc(-c3ccc4ncc(C(=O)N5CCC(N6CCOCC6)CC5)n4c3)ccc2o1; > 5.00

Which pIC50 value belongs to Nc1nc2cc(-c3ccc4ncc(N5CCN(C(=O)[C@H](N)CO)CC5)nc4c3)ccc2o1 ?
> 7.00

And Nc1nc2ccc(-c3ccc4sc(N)nc4c3)cc2o1 ?
> 7.00

Here is the next compound: CN1CCC(Nc2ncnc3ccc(-c4ccc5oc(N)nc5c4)nc23)CC1
> 6.00
